system: BDF1 mice, Friend leukemia sc, tumor weight T/C; assay: NCI In Vivo Anticancer Drug Screen. Data for tumor model Friend Virus Leukemia (Solid) (subcutaneous) in B6D2F1 (BDF1) mice; settings: endpoint: mean tumor weight; dose: 7.5 mg/kg/injection; schedule: Q01DX011 (ip); vehicle: carboxymethylcellulose (CMC); higher = larger tumour
Records with an inconclusive call do not appear.
Below, each entry is listed alongside its reported T/C.

[
  {
    "test_smiles": "Cc1ccc(N2CCN(CCCN3CCN(c4ccc(Cl)cc4)CC3)CC2)cc1",
    "T/C": "80 % of control"
  },
  {
    "test_smiles": "Nc1nc(N)c(N=O)c(Nc2ccc(Cl)c(Cl)c2)n1",
    "T/C": "69 % of control"
  },
  {
    "test_smiles": "O=C(Nc1ccc(C2=NCCCN2)cc1)c1ccc(C(=O)Nc2ccc(C3=NCCCN3)cc2)cc1",
    "T/C": "10 % of control"
  },
  {
    "test_smiles": "Clc1ccc(N2CCN(CCCN3CCN(c4cccc(Cl)c4)CC3)CC2)cc1",
    "T/C": "93 % of control"
  },
  {
    "test_smiles": "CCOC(=O)Sc1ncnc2nc[nH]c12",
    "T/C": "44 % of control"
  }
]
